- test.details: Single ascending dose (SAD) study in healthy male volunteers: pharmacokinetics
- Assay type: in vivo, human
- reported.conditions: male, human, plasma, oral, 24 mg, across dose range 6, 12, 24 mg; read-out: apparent terminal half-life (t1/2)
- Experimental: Initially in the single ascending dose (SAD) study the safety, tolerability, and pharmacokinetics of the compound of Formula I at 6 mg, 12 mg, and 24 mg doses in healthy human male volunteers were evaluated. […] Referring to FIG. 1, The dose proportionality assessment using ANCOVA was assessed in the PK analysis set. […]
recorded.metric: half-life

Request: Requested read-out: half-life. Entry: Cc1ccc(C(=O)NNC(=O)c2c(C)cccc2Cl)cc1C#Cc1cnc2ccccc2c1
Result: 12.7 to 17.1 h
